measured_on: system xc- (H4) (Homo sapiens)
Construct: gene SLC7A11; native endogenous transporter in intact H4 neuroglioma cells
Sequence (Q9UPY5 whole entry): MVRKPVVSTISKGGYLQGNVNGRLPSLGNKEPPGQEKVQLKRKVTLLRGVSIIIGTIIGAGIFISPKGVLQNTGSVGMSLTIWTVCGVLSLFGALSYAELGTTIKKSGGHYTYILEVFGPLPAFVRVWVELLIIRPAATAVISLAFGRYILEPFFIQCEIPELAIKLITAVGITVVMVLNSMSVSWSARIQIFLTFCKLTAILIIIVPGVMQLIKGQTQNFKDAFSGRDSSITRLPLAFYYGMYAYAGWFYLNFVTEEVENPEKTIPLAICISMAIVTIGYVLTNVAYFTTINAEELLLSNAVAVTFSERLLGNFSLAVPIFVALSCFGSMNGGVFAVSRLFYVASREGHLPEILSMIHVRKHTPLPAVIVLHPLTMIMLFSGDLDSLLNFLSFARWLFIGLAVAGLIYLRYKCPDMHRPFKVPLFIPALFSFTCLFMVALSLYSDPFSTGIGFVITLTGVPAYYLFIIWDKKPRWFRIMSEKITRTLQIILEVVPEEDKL
Sequence (P08195 102-630 partner): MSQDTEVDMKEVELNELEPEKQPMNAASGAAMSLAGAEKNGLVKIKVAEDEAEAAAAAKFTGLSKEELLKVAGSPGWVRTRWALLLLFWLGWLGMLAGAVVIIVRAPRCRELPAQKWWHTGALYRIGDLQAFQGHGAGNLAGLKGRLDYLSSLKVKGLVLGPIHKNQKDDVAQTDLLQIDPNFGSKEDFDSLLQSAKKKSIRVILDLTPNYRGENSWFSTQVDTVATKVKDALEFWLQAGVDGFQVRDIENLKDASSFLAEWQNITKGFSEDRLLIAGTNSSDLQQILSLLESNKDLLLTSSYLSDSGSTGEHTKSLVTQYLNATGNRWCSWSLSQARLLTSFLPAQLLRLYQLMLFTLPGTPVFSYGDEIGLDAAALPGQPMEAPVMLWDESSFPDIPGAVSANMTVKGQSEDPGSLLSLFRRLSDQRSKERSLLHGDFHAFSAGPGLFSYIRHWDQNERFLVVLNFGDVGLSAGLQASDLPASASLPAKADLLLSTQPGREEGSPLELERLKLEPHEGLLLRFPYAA
test_summary: cell-based
Set-up: [14C]-cystine uptake inhibition, 2 min, PBS with Na+, scintillation counting
recorded_conditions: PBS (+Na+), 2 min
endpoint_label: pIC50
Quick note: pIC50 means taking -log10 of the concentration in moles per liter.

                                   molecule  recorded_number
0  N[C@H](C(=O)O)c1ccc(C(=O)O)cc1 [(S)-4CPG]             4.70

// next entry
Challenge: Param readout= pIC50; system= system xc- (H4) (Homo sapiens); entry= N[C@@H](CCC(=O)O)C(=O)O [glutamate] ; returns value.
Response given: 3.70
